target: glucocorticoid receptor (GR) (Homo sapiens); construct: cytosol preparation; assay: Binding to recombinantly produced glucocorticoid receptor (cytosol preparations of baculovirus-infected Sf9 cells, [3H]-dexamethasone as reference substance); conditions: recombinant GR
Sequence (P04150 whole entry, species assumed): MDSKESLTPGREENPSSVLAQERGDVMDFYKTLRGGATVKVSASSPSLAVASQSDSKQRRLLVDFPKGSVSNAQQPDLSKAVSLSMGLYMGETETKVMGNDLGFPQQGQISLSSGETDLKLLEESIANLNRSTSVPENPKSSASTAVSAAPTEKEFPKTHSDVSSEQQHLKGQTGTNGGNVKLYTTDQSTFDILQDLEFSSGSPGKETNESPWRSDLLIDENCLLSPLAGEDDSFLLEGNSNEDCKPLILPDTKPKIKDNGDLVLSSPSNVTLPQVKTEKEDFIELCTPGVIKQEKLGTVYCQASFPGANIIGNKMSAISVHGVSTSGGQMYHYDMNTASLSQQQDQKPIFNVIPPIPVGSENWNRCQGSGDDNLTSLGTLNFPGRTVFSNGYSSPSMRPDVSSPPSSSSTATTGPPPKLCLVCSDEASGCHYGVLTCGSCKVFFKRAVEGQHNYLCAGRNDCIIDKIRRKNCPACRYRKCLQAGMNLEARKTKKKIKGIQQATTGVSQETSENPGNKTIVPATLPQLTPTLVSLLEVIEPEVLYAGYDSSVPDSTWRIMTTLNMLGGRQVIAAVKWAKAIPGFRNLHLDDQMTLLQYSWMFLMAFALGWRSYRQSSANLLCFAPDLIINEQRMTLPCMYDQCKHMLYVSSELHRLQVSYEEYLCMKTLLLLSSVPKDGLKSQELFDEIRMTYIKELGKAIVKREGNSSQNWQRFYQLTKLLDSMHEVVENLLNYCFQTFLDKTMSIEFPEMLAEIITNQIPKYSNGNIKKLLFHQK
readout type: pIC50
The read-out pIC50 is expressed as -log10 of concentration in moles per litre.

[Q] Lab note: need pIC50 for CC(C)(CC(O)(CNc1cccc2c1cnn2-c1ccc(F)nc1)C(F)(F)F)c1cccc2c1OCO2 (stereo not shown) on glucocorticoid receptor (GR) (Homo sapiens), anyone have it?
[A] 7.94
